MEASUREMENT TARGET: recombinant full length human JNK2 enzyme (Homo sapiens, UniProt P45984)
Construct: recombinant full length human JNK2 or JNK3 enzyme; purchased Upstate; host or cells: Sf21 cells
Sequence (P45984 whole entry): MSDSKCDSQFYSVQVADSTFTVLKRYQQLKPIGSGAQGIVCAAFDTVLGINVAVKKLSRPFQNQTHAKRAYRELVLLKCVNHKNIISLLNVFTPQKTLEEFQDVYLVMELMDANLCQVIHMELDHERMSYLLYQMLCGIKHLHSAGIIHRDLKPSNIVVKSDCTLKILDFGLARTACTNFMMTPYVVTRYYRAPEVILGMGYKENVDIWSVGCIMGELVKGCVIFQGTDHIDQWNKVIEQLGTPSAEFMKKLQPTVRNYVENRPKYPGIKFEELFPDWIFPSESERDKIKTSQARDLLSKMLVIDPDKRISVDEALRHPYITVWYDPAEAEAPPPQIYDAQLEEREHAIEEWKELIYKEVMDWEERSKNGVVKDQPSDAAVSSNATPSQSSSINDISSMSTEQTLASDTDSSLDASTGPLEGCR
ASSAY COMMENT: JNK 2 inhibition assay (ATP depletion, luciferase)
Type: biochemical
MEASUREMENT CONDITIONS: 10 uM ATP, ATF2 substrate; read-out: JNK 2 Inhibition (IC50 in μM)
Hi! Just check whether IC50 is below 1 µM. Below gives true (1), equal or above gives false (0).

// known answers, use as guide
COMPOUND | QUALITATIVE LABEL
COCc1nn2ccccc2c1-c1ccnc(NC(C)C)n1 | false (0)
CC(C)c1nn2ccccc2c1-c1cnc(N)nc1 | false (0)

*Q* Check if IC50 falls below 1 µM for CCCCc1nn2ccccc2c1-c1ccnc(NC(C)C)n1 .
*A* false (0)

*Q* Now try Clc1cccc(-c2nn3ccccc3c2-c2ccnc(NC3CCCC3)n2)c1 .
*A* true (1)

---

Overview of recorded IC50 for various molecules
MEASUREMENT TARGET: catalytic domain of phosphodiesterase 4B enzyme cloned from human brain (Homo sapiens, UniProt Q07343)
Construct: the catalytic domain of phosphodiesterase 4B enzyme; purchased Scottish Biomedical
Sequence (Q07343 330-659 limits assumed): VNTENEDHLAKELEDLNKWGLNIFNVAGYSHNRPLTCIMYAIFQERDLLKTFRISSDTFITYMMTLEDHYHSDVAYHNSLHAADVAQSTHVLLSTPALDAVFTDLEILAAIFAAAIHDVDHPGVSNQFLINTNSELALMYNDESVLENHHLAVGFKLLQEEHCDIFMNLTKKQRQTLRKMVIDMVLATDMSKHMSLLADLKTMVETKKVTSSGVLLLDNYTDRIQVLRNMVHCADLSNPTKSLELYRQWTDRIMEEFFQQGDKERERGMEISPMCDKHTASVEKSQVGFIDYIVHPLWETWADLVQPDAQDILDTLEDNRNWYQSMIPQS
ASSAY COMMENT: PDE4 inhibition assay (PDELight)
Format: biochemical
MEASUREMENT CONDITIONS: 5 uM cAMP; read-out: PDE 4 Inhibition (IC50 in μM)
Numeric answer only, unit µM assumed.

SMILES RECORD | IC50 (µM)
CC(C)Cc1nn2ccccc2c1-c1ccnc(NC(C)C)n1 | 6.4

*Q* # IC50 lookup, item CC(C)c1nn2ccccc2c1-c1ccnc(NC2CC2)n1
*A* 4.5

*Q* Try this molecule too: Cc1cccc2c(-c3ccnc(NC(C)C)n3)cnn12
*A* 6.2

*Q* Another molecule: Cc1nn2ccccc2c1-c1ccnc(NS(=O)(=O)c2ccsc2)n1
*A* 6.8

*Q* Can you check O=S(=O)(Nc1nccc(-c2cnn3ccccc23)n1)c1ccccc1 next?
*A* 9.4

*Q* Try the molecule CC(C)Nc1nccc(-c2cnn3ccccc23)n1
*A* 5.9

*Q* Subsequent entry: CC(C)Cc1nn2ccccc2c1-c1ccnc(NC2CCCC2)n1
*A* 5.4

*Q* Note, next up: CC(C)c1nn2ccccc2c1-c1ccnc(NCCCO)n1
*A* 6.2

*Q* Now this one: CCC(CC)Nc1nccc(-c2c(C(C)C)nn3ccccc23)n1
*A* 5.9

*Q* Another molecule to check: Brc1cccc(-c2nn3ccccc3c2-c2ccnc(NC3CCCC3)n2)c1
*A* 4.9

---

Parameter log10(EC50): see the listing below.
Tested on: Mouse BV-2 microglial cells
ASSAY COMMENT: BV-2 glial cell assay (TNF-α and MCP-1 by Luminex)
Type: cell-based
MEASUREMENT CONDITIONS: Mus musculus, BV-2; LPS and IFN-γ activated, 20 hours; read-out: TNF-a BV-2 (EC50 in μM)
Each number you see is log10 of EC50, and the unit inside the log is µM.

// worked examples, log10(EC50) included
COMPOUND | log10(EC50)
c1ccn2ncc(-c3ccnc(NC4CCCC4)n3)c2c1 [AV1165] | -0.70
Clc1cccc(-c2nn3ccccc3c2-c2ccnc(NC3CCCC3)n2)c1 [AV1194] | -1.52
Brc1cccc(-c2nn3ccccc3c2-c2ccnc(NC3CCCC3)n2)c1 [AV1195] | -1.52
CC(C)Nc1nccc(-c2c(C(C)C)nn3ccccc23)n1 [AV1137] | 0.08
CC(C)Nc1nccc(-c2cnn3ccccc23)n1 [AV1164] | -0.40
CCCNc1nccc(-c2cnn3ccccc23)n1 [AV1166] | -0.05
c1ccn2nc(C3CC3)c(-c3ccnc(NC4CCCC4)n3)c2c1 [AV1198] | 0.52
c1ccn2nc(C3CC3)c(-c3ccnc(NC4CC4)n3)c2c1 [AV1200] | 0.00

*Q* Observed log10(EC50) on Mouse BV-2 microglial cells for CC(C)Nc1nccc(-c2c(C3CC3)nn3ccccc23)n1 [AV1173] , please.
*A* 0.15

*Q* Another: CC(C)c1nn2ccccc2c1-c1cnc(N)nc1 [AV1203]
*A* -0.10

*Q* Subsequent entry: Fc1cccc(-c2nn3ccccc3c2-c2ccnc(NC3CCCC3)n2)c1 [AV1180]
*A* -1.40

*Q* // repeat for Cc1cccc2c(-c3ccnc(NC(C)C)n3)cnn12 [AV1183] and report
*A* 0.04

*Q* Request: CC(C)CNc1nccc(-c2c(C(C)C)nn3ccccc23)n1 [AV1158]
*A* 0.00

*Q* Next up: Cc1cccc2c(-c3ccnc(NC4CCCC4)n3)cnn12 [AV1184]
*A* -0.52

*Q* How about this compound: CC(C)C(=O)c1c(C(C)C)nn2ccccc12 [AV411, reference compound]
*A* 0.43
